Measured pKd of individual entries
Subject of test: T1, CXCL11_HUMAN (human, UniProt O14625 22-94)
T1 chain: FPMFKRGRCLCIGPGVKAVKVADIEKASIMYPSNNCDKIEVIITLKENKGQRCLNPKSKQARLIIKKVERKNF
Method description: BLI
pKd: −log10 of the molar value.
Measurement name: pKd

- Binder: "P1126_AMBCA (other) KPQILQRTDKSTDSEWDPQTCPETCIPSKNITCSDGCVCVKLGEEEEGTCFNMTGVDWLGSPSDD"
  Measurement name: "pKd"
  Value measured: 6.40
- Binder: "P942_IXORI (other) NQLSGPQSSANSNEAVFCDTNCTQGTDEAWSGCRGDCFCVYVGNSTEGRCMMLSGDFDYSTPGAED"
  Measurement name: "pKd"
  Value measured: 7.91
- Binder: "P1077_IXORI (other) GSKQLIGPQSSTNSIKAEFCDTNCTAGTNGIWNGCSGDCFCTHVGNSTEGRCMKITGFDEYPTSEAEE"
  Measurement name: "pKd"
  Value measured: 6.27
